Below, each entry is listed alongside its reported EC50.
target: human RXFP1 (Homo sapiens); construct: expressed in transfected cells; experiment: RXFP1 cAMP assay (hRXFP1 HEK293 cAMP assay, HTRF); type: cell-based; details: HEK293 cells stably expressing human RXFP1, 30 min at room temperature, read-out: cAMP hRXFP1 HEK293 Assay EC50
Sequence (Q9HBX9 whole entry): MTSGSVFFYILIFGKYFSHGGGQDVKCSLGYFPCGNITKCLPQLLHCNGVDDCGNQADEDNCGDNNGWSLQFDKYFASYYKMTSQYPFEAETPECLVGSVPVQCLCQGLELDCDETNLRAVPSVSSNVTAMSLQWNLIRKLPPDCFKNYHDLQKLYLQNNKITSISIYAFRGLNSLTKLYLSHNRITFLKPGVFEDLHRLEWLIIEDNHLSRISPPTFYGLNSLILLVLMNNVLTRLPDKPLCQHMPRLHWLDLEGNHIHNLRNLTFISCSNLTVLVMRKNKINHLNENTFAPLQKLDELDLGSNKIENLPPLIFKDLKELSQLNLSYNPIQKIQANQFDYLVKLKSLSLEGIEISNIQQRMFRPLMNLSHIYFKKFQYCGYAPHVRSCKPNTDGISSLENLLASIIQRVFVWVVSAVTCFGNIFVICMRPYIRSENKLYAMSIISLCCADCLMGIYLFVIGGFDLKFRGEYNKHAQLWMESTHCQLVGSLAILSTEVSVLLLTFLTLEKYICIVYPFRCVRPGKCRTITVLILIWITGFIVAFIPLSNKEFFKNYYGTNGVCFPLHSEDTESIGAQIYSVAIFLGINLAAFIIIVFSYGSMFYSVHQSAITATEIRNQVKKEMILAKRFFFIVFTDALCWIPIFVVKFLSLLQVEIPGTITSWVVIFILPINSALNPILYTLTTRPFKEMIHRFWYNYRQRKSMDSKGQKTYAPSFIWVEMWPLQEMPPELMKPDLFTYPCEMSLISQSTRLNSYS

compound | EC50
COc1ccc(C2=NOC3CN(C(=O)OC(C)(C)C)CC23)cc1C(=O)N[C@@H]1C2CCC(/C2=C/C2CC2)[C@@H]1C(=O)Nc1ccc(F)c(C(F)(F)F)c1 (some centres unmarked) [compound 436] | 4 nM
COc1ccc(C2=NOC3COCC23)cc1C(=O)N[C@H]1[C@@H](C(=O)NC(C2CC2)C2CC2)[C@H]2CC[C@@H]1/C2=C\C1CC1 (some centres unmarked) [compound 521] | 19.5 nM
COc1cc(F)c(F)cc1C(=O)N[C@@H]1C2CCC(C2=C(C)C)[C@@H]1C(=O)Nc1ccnc(C(F)(F)F)c1 (some centres unmarked) [compound 75] | 2600 nM
COc1ccc(N2CCCC(C(=O)O)C2)cc1C(=O)N[C@@H]1C2CCC(C2=C(C)C)[C@@H]1C(=O)Nc1ccc(F)c(C(F)(F)F)c1 (some centres unmarked) [compound 142] | 2900 nM
COc1ccc(-c2ccc(C(CC(=O)O)C(F)(F)F)cc2F)cc1C(=O)N[C@H]1[C@@H](C(=O)Nc2ccc(F)c(C(F)(F)F)c2)[C@H]2CC[C@@H]1/C2=C\C1CCCC1 (some centres unmarked) [compound 892] | 9.9 nM
COc1ccc(-c2ccc3c(C(=O)OCc4ccccc4)cnn3c2)cc1C(=O)N[C@@H]1C2CCC(/C2=C/C(F)(F)F)[C@@H]1C(=O)Nc1ccc(F)c(C(F)(F)F)c1 (some centres unmarked) [compound 316] | 81 nM
COc1ccc(C2=NO[C@H]3COC[C@@H]23)cc1C(=O)N[C@H]1[C@@H](C(=O)N[C@H](C)C2(C)CC2)[C@H]2CC[C@@H]1/C2=C\C1CC(F)(F)C1 [compound 842] | 4.9 nM
COc1ccc(-c2cc([C@H](OC(=O)NC3CCC3)C(F)(F)F)ccc2F)cc1C(=O)N[C@@H]1C2CCC(/C2=C/CC(C)C)[C@@H]1C(=O)Nc1ccc(F)c(C(F)(F)F)c1 (some centres unmarked) [compound 926] | 2.8 nM
COc1ccc(-c2cnc3n2CC(O)CC3)cc1C(=O)N[C@H]1[C@@H](C(=O)Nc2ccc(F)c(C(F)(F)F)c2)[C@H]2CC[C@@H]1/C2=C\C1CC1 (some centres unmarked) [compound 752] | 2.5 nM
COc1ccc(-c2ccnc(C(F)F)c2)cc1C(=O)N[C@@H]1C2CCC(/C2=C/C2CC2)[C@@H]1C(=O)Nc1ccc(F)c(C(F)(F)F)c1 (some centres unmarked) [compound 284] | 109 nM
COc1ccc(-c2cc(CC(=O)O)ccc2F)cc1C(=O)N[C@@H]1C2CCC(/C2=C/C2CC2)[C@@H]1C(=O)Nc1ccc(F)c(C(F)(F)F)c1 (some centres unmarked) [compound 189] | 10 nM
